Hello, the source for this data is patent US6897237B2, in case you need it.

target: MMP-13 catalytic domain (Homo sapiens, UniProt P45452); construct: catalytic domain (^104Tyr˜^267Gly); His-tag; enterokinase digestion-site; experiment: Assay for inhibitory activities on MMPs (fluorogenic peptide substrate): MMP-13; conditions: substrate MOCAc-Pro-Leu-Gly-Leu-A2Pr(DNP)-Ala-Arg-NH2
test readout: IC50 (nM)

// known answers, use as guide
compound	readout unit	measured number
C[C@H](NS(=O)(=O)c1ccc(C#Cc2ccc3ccccc3c2)cc1)C(=O)O [Compound A-8]	nM	2770
CC(C)[C@H](NS(=O)(=O)c1ccc(C#Cc2ccc3ccccc3c2)cc1)C(=O)O [Compound A-1]	nM	300
O=C(O)CNS(=O)(=O)c1ccc(C#Cc2ccc3ccccc3c2)s1 [Compound B-9]	nM	7180
CSCC[C@H](NS(=O)(=O)c1ccc(C#Cc2ccc3ccccc3c2)s1)C(=O)O [Compound B-11]	nM	6140
CC(C)C[C@@H](NS(=O)(=O)c1ccc(C#Cc2ccc3ccccc3c2)cc1)C(=O)O [Compound A-10]	nM	1550

(P) O=C(Nc1ccc(S(=O)(=O)N[C@@H](Cc2ccccc2)C(=O)O)cc1)c1ccc2ccccc2c1 [Compound D-2]
(Q) CC(C)C[C@H](NS(=O)(=O)c1ccc(C#Cc2ccc3ccccc3c2)cc1)C(=O)O [Compound A-11]
Problem: Kindly identify the item with the lower IC50 figure among these two: P and Q Please indicate the selected item by its label.
Result: Q
(Q: 460 nM, P: 2330 nM)

(a) O=C(O)C[C@@H](NS(=O)(=O)c1ccc(C#Cc2ccc3ccccc3c2)s1)C(=O)O [Compound B-12]
(b) CSCC[C@@H](NS(=O)(=O)c1ccc(C#Cc2ccc3ccccc3c2)s1)C(=O)O [Compound B-10]
Problem: Parameter check: reported IC50 is higher for which label, a or b ? Please indicate the selected item by its label.
Result: a

(a) CC(C)[C@@H](NS(=O)(=O)c1ccc(C#Cc2ccc3ccccc3c2)cc1)C(=O)O [Compound A-5]
(b) CC(C)[C@@H](NS(=O)(=O)c1ccc(C#Cc2ccc3ccccc3c2)s1)C(=O)O [Compound B-4]
(c) O=C(O)[C@H](NS(=O)(=O)c1ccc(C#Cc2ccc3ccccc3c2)cc1)c1ccc(O)cc1 [Compound A-12]
Problem: Output the entries ranked by IC50 from maximum down to minimum. Write out the labels following the order that was asked for.
Result: c, b, a

---

Biological target: MMP-9 (Homo sapiens, UniProt P14780)
Construct: endogenous in cells; purified in house from conditioned medium
Sequence (P14780 107-707 limits assumed): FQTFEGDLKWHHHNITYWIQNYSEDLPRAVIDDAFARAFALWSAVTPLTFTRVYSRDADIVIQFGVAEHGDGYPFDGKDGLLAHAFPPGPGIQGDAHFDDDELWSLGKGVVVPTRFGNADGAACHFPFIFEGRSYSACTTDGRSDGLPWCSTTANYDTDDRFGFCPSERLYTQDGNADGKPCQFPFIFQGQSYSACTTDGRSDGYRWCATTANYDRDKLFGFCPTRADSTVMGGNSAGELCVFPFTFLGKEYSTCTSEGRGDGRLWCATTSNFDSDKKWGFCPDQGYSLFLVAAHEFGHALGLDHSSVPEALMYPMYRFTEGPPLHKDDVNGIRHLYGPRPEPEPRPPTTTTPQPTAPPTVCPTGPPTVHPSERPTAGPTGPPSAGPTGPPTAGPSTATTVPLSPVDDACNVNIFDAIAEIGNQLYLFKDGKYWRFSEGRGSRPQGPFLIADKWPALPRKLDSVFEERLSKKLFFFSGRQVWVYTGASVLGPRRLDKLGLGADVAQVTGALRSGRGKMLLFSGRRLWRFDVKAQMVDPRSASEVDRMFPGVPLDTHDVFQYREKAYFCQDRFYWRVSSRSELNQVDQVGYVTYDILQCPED
Experiment: Assay for inhibitory activities on MMPs (fluorogenic peptide substrate): MMP-9
Conditions: substrate MOCAc-Pro-Leu-Gly-Leu-A2Pr(DNP)-Ala-Arg-NH2
Description: MMP-9 was isolated and purified by using a combination of procedures described in previous reports as follows. […] The enzymatic activity on MMPs was analyzed by the method described in “C. […] IC50 values were calculated by using the following formula and each fluorescence values of above four methods (A to D). […]
test readout: IC50 (nM)

// known answers, use as guide
compound	measured number
CC(C)C[C@@H](NS(=O)(=O)c1ccc(C#Cc2ccc3ccccc3c2)cc1)C(=O)O [Compound A-10]	1440
C[C@@H](NS(=O)(=O)c1ccc(C#Cc2ccc3ccccc3c2)s1)C(=O)O [Compound B-6]	840
O=C(O)C[C@@H](NS(=O)(=O)c1ccc(C#Cc2ccc3ccccc3c2)s1)C(=O)O [Compound B-12]	1100

(I) CSCC[C@@H](NS(=O)(=O)c1ccc(C#Cc2ccc3ccccc3c2)s1)C(=O)O [Compound B-10]
(II) O=C(O)[C@H](NS(=O)(=O)c1ccc(C#Cc2ccc3ccccc3c2)s1)c1ccc(O)cc1 [Compound B-8]
Problem: Parameter check: reported IC50 is higher for which label, I or II ? Please indicate the selected item by its label.
Result: II
